Target: T1, full-length human GIPR with an N-terminal FLAG tag (human, UniProt P48546 22-466)
T1 sequence (looked up): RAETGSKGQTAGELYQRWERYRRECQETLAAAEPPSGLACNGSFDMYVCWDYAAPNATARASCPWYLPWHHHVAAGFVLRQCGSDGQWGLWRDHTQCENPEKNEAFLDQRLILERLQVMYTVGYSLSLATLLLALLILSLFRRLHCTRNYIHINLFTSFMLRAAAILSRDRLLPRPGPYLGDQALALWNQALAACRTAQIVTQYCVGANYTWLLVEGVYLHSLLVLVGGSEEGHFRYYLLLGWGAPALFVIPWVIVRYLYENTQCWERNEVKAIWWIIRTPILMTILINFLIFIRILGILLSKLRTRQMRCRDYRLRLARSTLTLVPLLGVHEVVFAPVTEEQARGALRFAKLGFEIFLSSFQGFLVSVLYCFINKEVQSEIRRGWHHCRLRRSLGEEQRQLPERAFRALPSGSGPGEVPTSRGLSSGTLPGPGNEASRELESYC
Test: cell-based or functional assay
Starred links: 1 amine or outer side, 2 acyl side, 3 side chain; linkers in the order of their positions; H or OH if unused. Non-standard residues stand in square brackets, D forms with d. Groups on a side chain read outwards from the residue. No end group written: not given here. *: point of attachment. G2E3 = linker of 2 Gly and 3 Glu (read GGEEE); C15 diacid = O=C(O)CCCCCCCCCCCCCC(=O)*; γGlu = O=C(O)[C@H](CCC(=O)[*:2])N[*:1]; NMeY = CN[C@@H](Cc1ccc(O)cc1)C(=O)O; AEEA = NCCOCCOCC(=O)O; Aib = CC(C)(N)C(=O)O
PARAMETER: Human GIPR cAMP, HEK293T EC50 (pM)
All answers are understood in pM, so give the number only.

Below are worked cases with known answers.
BINDER	READING UNIT	Human GIPR cAMP, HEK293T EC50
[NMeY][Aib]EGTFTSDYSIYK([AEEA-AEEA-γGlu-C15 diacid])DR[Aib]AQ[Aib]NFVNWLLAQRPSSGAPPPS-OH (not fully specified) [Compound 46]	pM	0.2
[NMeY][Aib]EGTFISDYSIALDK[Aib]AQ[Aib]NFVNWLLAK([AEEA-AEEA-γGlu-C15 diacid])S-OH (not fully specified) [Compound 35]	pM	0.3
Y[Aib]EGTFISDYSIALDR[Aib]AQ[Aib]NFVNWLLAQK([G2E3-C15 diacid]) (not fully specified (residue 1, N-terminus); also: Me-Tyr methyl position not given here) [Compound 41]	pM	0.4

Reported Human GIPR cAMP, HEK293T EC50 for [NMeY][Aib]EGTFISDYSIAK([G5-γGlu-γGlu-C15 diacid])DR[Aib]AQ[Aib]NFVNWLLAQSPSSGAPPPS-NH2 [Compound 81] : what is it?
0.2
